STUDY TARGET: CCKB receptor (Mus musculus, UniProt P56481)
Construct: The whole brains from male mice (CD1 22-25 g; Charles River) were removed; from tissue; host or cells: cerebral cortex membranes of male CD1 mice
Sequence (P56481 1-453): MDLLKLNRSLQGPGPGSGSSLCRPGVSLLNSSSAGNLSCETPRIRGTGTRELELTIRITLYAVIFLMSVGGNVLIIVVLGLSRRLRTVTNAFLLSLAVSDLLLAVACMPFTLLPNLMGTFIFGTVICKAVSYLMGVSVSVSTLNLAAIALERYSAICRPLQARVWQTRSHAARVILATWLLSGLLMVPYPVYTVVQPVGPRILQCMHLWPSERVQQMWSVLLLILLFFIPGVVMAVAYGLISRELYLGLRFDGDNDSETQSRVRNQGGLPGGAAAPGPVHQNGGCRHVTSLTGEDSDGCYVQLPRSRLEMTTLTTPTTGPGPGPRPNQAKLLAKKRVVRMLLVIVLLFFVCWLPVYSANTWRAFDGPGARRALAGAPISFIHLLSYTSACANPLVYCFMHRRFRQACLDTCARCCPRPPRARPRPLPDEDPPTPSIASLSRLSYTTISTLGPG
EXPERIMENT SUMMARY: CCKB receptor radioligand binding assay in mouse cortical membranes
SETUP CONDITIONS: [125I]-CCK8(S) 200 pM, 150 min at 21±3°, read-out: CCKB pKi (converted)
log10 of Ki for assorted compounds
// stored as log10 of Ki expressed in nM

{"columns": ["COMPOUND", "NUMERIC READOUT"],
 "data": [
  ["O=C(O)c1cc(NC(=O)c2nc(-c3cccc4ccccc34)[nH]c2CC2CCCCCC2)cc(C(=O)O)c1", 3.09],
  ["O=C(O)c1cccc(NC(=O)c2nc(-c3ccccc3C(F)(F)F)[nH]c2CCC2CCCCCC2)c1", 2.97],
  ["O=C(O)c1cc(NC(=O)c2ncn(Cc3ccccc3)c2CC2CCCCCC2)cc(C(=O)O)c1", 3.50],
  ["O=C(O)c1cccc(NC(=O)c2nc(C3CCCCC3)[nH]c2CCCC23CC4CC(CC(C4)C2)C3)c1", 2.15],
  ["O=C(Nc1cccc(-c2nnn[nH]2)c1)c1nc(-c2ccccc2)[nH]c1CCC12CC3CC(CC(C3)C1)C2", 2.26]
]}

Exam item: log10 of Ki lookup needed for "O=C(O)c1cc(NC(=O)c2nc(C3CCCCC3)[nH]c2CCC23CC4CC(CC(C4)C2)C3)ccc1F" , thanks.
Marked response: 1.10

Exam item: log10 of Ki lookup needed for "Cc1cc(NC(=O)c2nc(-c3ccccc3C)[nH]c2CCC23CC4CC(CC(C4)C2)C3)cc(C(=O)O)c1" , thanks.
Marked response: 2.48

Exam item: log10 of Ki lookup needed for "O=C(Nc1cc(-c2nnn[nH]2)cc(-c2nnn[nH]2)c1)c1cc(-c2ccc3ccccc3c2)[nH]c1CC12CC3CC(CC(C3)C1)C2" , thanks.
Marked response: 2.36

Exam item: log10 of Ki lookup needed for O=C(O)c1cccc(NC(=O)c2nc(C3CC=CCC3)[nH]c2CCC23CC4CC(CC(C4)C2)C3)c1 (centres unmarked) , thanks.
Marked response: 1.63

Exam item: log10 of Ki lookup needed for "Cc1ccc(NC(=O)c2nc(C3(C)CCCCC3)[nH]c2COC23CC4CC(CC(C4)C2)C3)cc1C(=O)O" , thanks.
Marked response: 0.47

Exam item: log10 of Ki lookup needed for "O=C(O)c1cc(NC(=O)c2nc(C3CCCCC3)[nH]c2CCC23CC4CC(CC(C4)C2)C3)cc(C(=O)O)c1" , thanks.
Marked response: 2.34

Exam item: log10 of Ki lookup needed for "O=C(Nc1cc(-c2nnn[nH]2)cc(-c2nnn[nH]2)c1)c1cc(-c2ccc3ccccc3c2)[nH]c1CC1CCCCCC1" , thanks.
Marked response: 2.26

Exam item: log10 of Ki lookup needed for "O=C(O)c1cccc(NC(=O)c2nc(CC34CC5CC(CC(C5)C3)C4)[nH]c2CCc2ccccc2)c1" , thanks.
Marked response: 3.01

* * *

STUDY TARGET: gastrin receptor (Rattus norvegicus, UniProt P30553)
Construct: The stomach was excised and flushed with ca. 1 ml of unbuffered physiological saline solution; from tissue; host or cells: isolated whole stomach of immature rats (ca. 21 days old)
Sequence (P30553 whole entry): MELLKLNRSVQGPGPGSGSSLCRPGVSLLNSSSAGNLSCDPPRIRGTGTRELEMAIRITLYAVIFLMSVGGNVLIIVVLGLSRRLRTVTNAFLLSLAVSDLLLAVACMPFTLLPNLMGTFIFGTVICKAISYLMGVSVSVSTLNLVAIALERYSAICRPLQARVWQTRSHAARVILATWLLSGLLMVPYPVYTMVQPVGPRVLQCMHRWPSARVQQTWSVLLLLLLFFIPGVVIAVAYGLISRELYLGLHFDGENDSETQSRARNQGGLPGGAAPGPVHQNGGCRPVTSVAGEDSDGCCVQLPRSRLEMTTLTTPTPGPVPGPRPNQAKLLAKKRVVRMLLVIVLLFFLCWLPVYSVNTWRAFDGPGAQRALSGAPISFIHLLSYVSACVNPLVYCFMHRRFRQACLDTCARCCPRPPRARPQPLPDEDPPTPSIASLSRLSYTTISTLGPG
EXPERIMENT SUMMARY: gastrin antagonist activity in immature rat stomach assay (pentagastrin dose-response, acid secretion)
SETUP CONDITIONS: isolated immature rat stomach, cumulative pentagastrin dose-response curves, read-out: Gastrin pKb (converted)
ATTRIBUTE MEASURED: Kb (nM)
Quick note: give the figure in nM, leave out the unit.

{"columns": ["COMPOUND", "Kb / nM"],
 "data": [
  ["O=C(O)c1cccc(NC(=O)c2nc(-c3cnc[nH]3)[nH]c2CCC23CC4CC(CC(C4)C2)C3)c1", 1050],
  ["O=C(O)c1cccc(NC(=O)c2nc(C3CCCCC3)[nH]c2CCC2C3CC4CC(C3)CC2C4)c1 (stereo not shown)", 3.72],
  ["N#Cc1ccccc1-c1nc(C(=O)Nc2cccc(C(=O)O)c2)c(COC23CC4CC(CC(C4)C2)C3)[nH]1", 58.9]
]}

Exam item: Kb lookup needed for "CCCc1nc(C(=O)Nc2cccc(C(=O)O)c2)c(CCC23CC4CC(CC(C4)C2)C3)[nH]1" , thanks.
Marked response: 52.5

Exam item: Kb lookup needed for "Cc1ccc(NC(=O)c2nc(C3CCCCCC3)[nH]c2COC23CC4CC(CC(C4)C2)C3)cc1C(=O)O" , thanks.
Marked response: 2.09

Exam item: Kb lookup needed for "O=C(O)c1cccc(NC(=O)c2nc(-c3c(Cl)cccc3Cl)[nH]c2CCC23CC4CC(CC(C4)C2)C3)c1" , thanks.
Marked response: 53.7

Exam item: Kb lookup needed for "O=C(NO)c1cccc(NC(=O)c2nc(C3CCCCC3)[nH]c2COC23CC4CC(CC(C4)C2)C3)c1" , thanks.
Marked response: 26.9

* * *

STUDY TARGET: CCKB receptor (Mus musculus)
Construct: The whole brains from male mice (CD1 22-25 g; Charles River) were removed; from tissue; host or cells: cerebral cortex membranes of male CD1 mice
EXPERIMENT SUMMARY: CCKB receptor radioligand binding assay in mouse cortical membranes
SETUP CONDITIONS: [125I]-CCK8(S) 200 pM, 150 min at 21±3°, read-out: CCKB pKi (converted)
Counter-ions that a name gives are not always drawn.
ATTRIBUTE MEASURED: log10 Ki (log10 of the value in nM)
// stored as log10 of Ki expressed in nM

Some molecules with known log10 Ki results, for comparison:
{"columns": ["MOLECULE", "STUDY TARGET", "NUMERIC READOUT"],
 "data": [
  ["O=C(O)c1cccc(NC(=O)c2nc(C3CC4CCC3C4)[nH]c2CCC23CC4CC(CC(C4)C2)C3)c1 (racemic) [Example 114]", "CCKB receptor (Mus musculus)", 1.50],
  ["Cc1ccccc1-c1nc(C(=O)Nc2cccc(CC(=O)O)c2)c(CCC23CC4CC(CC(C4)C2)C3)[nH]1", "CCKB receptor (Mus musculus)", 0.35],
  ["Cc1cccc(C)c1-c1nc(C(=O)Nc2cccc(C(=O)O)c2)c(CCC23CC4CC(CC(C4)C2)C3)[nH]1", "CCKB receptor (Mus musculus)", 1.75],
  ["CCCC(CCC)c1nc(C(=O)Nc2cccc(C(=O)O)c2)c(CCC23CC4CC(CC(C4)C2)C3)[nH]1", "CCKB receptor (Mus musculus)", 2.02],
  ["O=C(O)c1cccc(NC(=O)c2cc(-c3ccccc3)[nH]c2CC2CCCCCC2)c1", "CCKB receptor (Mus musculus)", 3.05],
  ["Cc1ccc(NC(=O)c2nc(C(C)(C)C)[nH]c2CCC23CC4CC(CC(C4)C2)C3)cc1C(=O)O", "CCKB receptor (Mus musculus)", 0.94],
  ["COc1ccccc1-c1nc(C(=O)Nc2cccc(C(=O)O)c2)c(CCC23CC4CC(CC(C4)C2)C3)[nH]1", "CCKB receptor (Mus musculus)", 2.90],
  ["O=C(O)c1cccc(NC(=O)c2nc(-c3cccc(Cl)c3Cl)[nH]c2CCC23CC4CC(CC(C4)C2)C3)c1", "CCKB receptor (Mus musculus)", 2.60]
]}

Exam item: log10 Ki lookup needed for "O=C(O)c1ccc(NC(=O)c2cc(-c3ccccc3)[nH]c2CC23CC4CC(CC(C4)C2)C3)cc1" , thanks.
Marked response: 2.81

Exam item: log10 Ki lookup needed for "CN(C)c1ccccc1-c1nc(C(=O)Nc2cccc(C(=O)O)c2)c(CCC23CC4CC(CC(C4)C2)C3)[nH]1" , thanks.
Marked response: 2.39

Exam item: log10 Ki lookup needed for "Cc1ccc(-c2nc(C(=O)Nc3ccc(C)c(C(=O)O)c3)c(CCC34CC5CC(CC(C5)C3)C4)[nH]2)c(C)c1" , thanks.
Marked response: 0.80

Exam item: log10 Ki lookup needed for "O=C(O)CCNC(=O)c1nc(-c2ccccc2F)[nH]c1CCC12CC3CC(CC(C3)C1)C2" , thanks.
Marked response: 3.41

Exam item: log10 Ki lookup needed for Cc1ccccc1-c1nc(C(=O)Nc2ccc(N)c(C(=O)O)c2)c(CCC23CC4CC(CC(C4)C2)C3)[nH]1 [Example 241, Dihydrochloride] , thanks.
Marked response: 1.78

Exam item: log10 Ki lookup needed for "CC1=C(Cc2nc(C(=O)Nc3cccc(C(=O)O)c3)c(CCC34CC5CC(CC(C5)C3)C4)[nH]2)C(C)(C)CCC1" , thanks.
Marked response: 2.05
